Biological target: type 2 human 5α-reductase (HRED2) (Homo sapiens)
Sequence (P31213 1-254): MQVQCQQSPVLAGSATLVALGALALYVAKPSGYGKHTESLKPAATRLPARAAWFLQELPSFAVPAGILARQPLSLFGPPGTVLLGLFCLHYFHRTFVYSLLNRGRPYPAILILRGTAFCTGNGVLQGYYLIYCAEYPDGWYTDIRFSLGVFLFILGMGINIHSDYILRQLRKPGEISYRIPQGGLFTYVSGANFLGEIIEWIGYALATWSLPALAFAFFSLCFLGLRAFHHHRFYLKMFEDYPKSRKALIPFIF
Test: Cell free assay of 5α-reductase, microsomes of rat 1A cells expressing type 2 isoenzyme (HRED2);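 also: labeled testosterone and its product dihydrotestosterone measured in microsomal reaction extracts via thin layer chromatography plus radioanalytic scanning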
Format: biochemical
Set-up: expressed in transfected cells; host or cells: rat 1A cells infected with pMV7 retrovirus; microsomes
Settings: cell free assay; Table 4 quinones; read-out: HRED2 IC50
pIC50: −log10 of the molar value.
property.label: pIC50

{"compound": "O=C1c2cccc(O)c2C(=O)c2cccc(O)c21", "target.or.test.system": "type 2 human 5α-reductase (HRED2) (Homo sapiens)", "pIC50": "< 4.00"}
{"compound": "O=C1c2ccccc2C(=O)c2c1cc(S(=O)(=O)[O-])c(O)c2O.[Na+]", "target.or.test.system": "type 2 human 5α-reductase (HRED2) (Homo sapiens)", "pIC50": "< 4.00"}
{"compound": "COC1=C(OC)C(=O)C(C/C=C(\\C)CC/C=C(\\C)CC/C=C(\\C)CC/C=C(\\C)CC/C=C(\\C)CC/C=C(\\C)CC/C=C(\\C)CC/C=C(\\C)CC/C=C(\\C)CCC=C(C)C)=C(C)C1=O", "target.or.test.system": "type 2 human 5α-reductase (HRED2) (Homo sapiens)", "pIC50": 4.66}

q: pIC50 for O=C1c2ccccc2C(=O)c2c(O)c(O)cc(O)c21 ?
a: < 4.00

q: pIC50 for CC1=CC(=O)c2ccccc2C1=O ?
a: 5.30

q: pIC50 for O=C1c2ccc(O)cc2C(=O)c2ccc(O)cc21 ?
a: < 4.00

---

Molecular target: type 1 human 5α-reductase (HRED1) (Homo sapiens, UniProt P18405)
Sequence (P18405 1-259): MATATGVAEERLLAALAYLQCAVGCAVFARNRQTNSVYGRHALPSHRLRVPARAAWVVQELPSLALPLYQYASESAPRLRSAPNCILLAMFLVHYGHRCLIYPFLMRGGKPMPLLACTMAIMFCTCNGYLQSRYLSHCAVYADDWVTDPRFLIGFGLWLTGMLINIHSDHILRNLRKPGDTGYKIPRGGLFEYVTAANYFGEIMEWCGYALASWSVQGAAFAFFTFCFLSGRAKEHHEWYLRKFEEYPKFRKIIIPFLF
Experiment: Whole cell assay of 5α-reductase, type 1 isoenzyme;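 also: intact rat 1A cells engineered to express the human type 1 5α-reductase isozyme serve as the enzyme source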
Type: cell-based
Set-up: expressed in transfected cells; host or cells: rat 1A cells infected with pMV7 retrovirus
Conditions: whole cell assay; Table 7; read-out: HCRED1 IC50
property.label: pIC50
# reply with the number alone; pIC50 is -log10 of concentration in mol/L

# annotated cases, reported pIC50 shown
{"compound": "CCCCCC#CCC#CCC#CCC#CCCCC(=O)O", "observed.measurement": 4.66}
{"compound": "CCCCCC=CCC=CCC=CCCCCC(=O)OC1Cc2c(O)cc(O)cc2OC1c1cc(O)c(O)c(O)c1 (centres unmarked)", "observed.measurement": 5.10}
{"compound": "CCCCCCCCCCCCOC(=O)c1cc(O)c(O)c(O)c1 [Dodecylgallate]", "observed.measurement": 5.52}
{"compound": "CCCCCCCCCCCCCC(=O)OC1Cc2c(O)cc(O)cc2OC1c1cc(O)c(O)c(O)c1 (centres unmarked)", "observed.measurement": 4.55}
{"compound": "CCCCCCCCOC(=O)c1cc(O)c(O)c(O)c1 [Octyl Gallate]", "observed.measurement": 5.15}
{"compound": "COc1ccc(-c2coc3cc(O)cc(O)c3c2=O)cc1", "observed.measurement": 4.19}
{"compound": "CCCCC/C=C\\C/C=C\\C/C=C\\CCCCC(=O)O [Gamma-Linolenic Acid, Gamma-Linolenic Acid C18:3 CIS 6.9,12]", "observed.measurement": 4.66}
{"compound": "CCCCC/C=C\\C/C=C\\CCCCCCCC(=O)O [Linoleic Acid, Linoleic Acid C18:2 CIS 9,12]", "observed.measurement": 4.40}
{"compound": "COc1cc(CCC(=O)CC(=O)CCc2ccc(O)c(OC)c2)ccc1O [Tetrahydrocurcumin]", "observed.measurement": 4.44}
{"compound": "O=c1c(O)c(-c2ccc(O)cc2)oc2cc(O)cc(O)c12", "observed.measurement": 4.10}

q: pIC50 for O=C1c2ccccc2C(=O)c2c1ccc(O)c2O ?
a: 5.22

q: pIC50 for CCCCCCCC(=O)OC1Cc2c(O)cc(O)cc2OC1c1cc(O)c(O)c(O)c1 (centres unmarked) ?
a: 4.24
